log10 CC50 at 120 h values by entry
Assay text: Cytotoxicity against mock-infected human MT4 cells after 5 days by MTT assay
Type: cell-based
Answers are given as log10 of CC50 at 120 h in µM.

Q: Report log10 CC50 at 120 h for `N#Cc1ccc(Nc2nccc(Oc3ccc4c(=O)c(C(=O)O)cn(C5CCCCC5)c4c3)n2)cc1` please.
Ans: 0.51

Q: # log10 CC50 at 120 h lookup, item `N#Cc1ccc(Nc2nccc(Oc3ccc4c(=O)c(C(=O)O)cn(C5CCCC5)c4c3)n2)cc1`
Ans: 0.70

Q: Entry under review: `CCn1cc(C(=O)O)c(=O)c2ccc(Oc3ccnc(Nc4ccc(C#N)cc4)n3)cc21` . Reported log10 CC50 at 120 h?
Ans: 2.39

More entries:
Q: Given `CCCn1cc(C(=O)O)c(=O)c2ccc(Nc3ccnc(Nc4ccc(C#N)cc4)n3)cc21` , state its recorded log10 CC50 at 120 h.
Ans: 2.28

Q: Please give the measured log10 CC50 at 120 h for this molecule: `CCn1cc(C(=O)O)c(=O)c2ccc(Nc3ccnc(Nc4ccc(C#N)cc4)n3)cc21`
Ans: 2.09

Q: Looking for the measured log10 CC50 at 120 h of `COc1cc2c(cc1Cc1cccc(Cl)c1F)c(=O)c(C(=O)O)cn2[C@H](CO)C(C)C` , can you help?
Ans: 0.66

The origin of these recorded values is ChEMBL document CHEMBL3585306.
